B1: KCNA4 (parent)
chain: YQLGEEALLKFREDEGFVREEEDR

# Variants of: B1
# ASSAY_PROCEDURE: protein stability index of a GFP-peptide fusion (GPS, HEK-293T) (PSI 1-6); higher = more stable;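 further: lentivirally expressed fusions sorted by FACS into six bins by GFP to DsRed ratio, PSI derived from sequencing read proportions per bin multiplied by bin number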
# CONDITION_SUMMARY: c terminus: a fixed tail appended
protein stability index class ranges: lowest: < 4; middle: ≥ 4 and < 5; highest: ≥ 5

{"columns": ["MUTANT_NAME", "LABEL_CLASS"],
 "data": [
  ["D14A", "lowest"],
  ["L3V", "highest"],
  ["R12E", "highest"],
  ["E13S", "lowest"],
  ["R12S", "middle"],
  ["L9T", "highest"],
  ["D23C", "middle"],
  ["Y1V", "highest"],
  ["A7N", "middle"]
]}

// provenance: the supplement of paper PMC10567573
